test system: MCF7; assay: NCI tumour cell line growth inhibition, 48 h
Active and inactive are the calls of the source. Cut-off read from the data, not from the text of the source: active = GI50 up to about 1.1 µM and inactive = higher.
A correct response names exactly one class from t for active, f for inactive

Cc1ccc2c(c1)C=CC1(O2)N(c2ccccc2)C(=S)OC1(C)C (stereo unspecified)	f
COc1ccc2c(c1)CCCC(Br)C2=O (stereo unspecified)	f
CCCn1c(=O)c2ccccc2[n+]2c(-c3ccc([N+](=O)[O-])cc3)csc12	f

[in] Could you kindly confirm the outcome this assay logged for CCc1cccc(C(C)C)c1NC(=O)C(=O)C1C(=O)Nc2ccccc2[S+]1[O-] (stereo unspecified) ?
[out] f

[in] Could you kindly confirm the outcome this assay logged for C=CCc1cc(C(Cc2ccccc2)NC(C)C)cc(OCc2ccccc2)c1OCc1ccccc1 (stereo unspecified) ?
[out] f

[in] Could you kindly confirm the outcome this assay logged for O=C(O)C12CC3(C(=O)O)CC(C(=O)O)(CC(C(=O)O)(C1)C3=O)C2=O ?
[out] f

[in] Could you kindly confirm the outcome this assay logged for COC1=CC(=O)c2c(O)ccc(O)c2C1=O ?
[out] f

[in] Could you kindly confirm the outcome this assay logged for CCOC(=O)c1cc2cc3c4c(c2oc1=O)CCCN4CCC3 ?
[out] f

[in] Could you kindly confirm the outcome this assay logged for O=NN1CCCS1(=O)=O ?
[out] f

[in] Could you kindly confirm the outcome this assay logged for NC(=S)N/N=C\c1ccc(OCc2cccc(COc3ccc(/C=N/NC(N)=S)cc3)n2)cc1 ?
[out] f

[in] Could you kindly confirm the outcome this assay logged for CSc1nc2c(c(=O)n1C)N=C(c1ccccc1)[C@H](C(CC(=O)c1ccccc1)c1ccccc1)C(c1ccccc1)N2 (stereo partly specified) ?
[out] f

[in] Could you kindly confirm the outcome this assay logged for O=c1[nH]c(=O)n2n1C1C=CC2CC1 ?
[out] f

[in] Could you kindly confirm the outcome this assay logged for CC(=O)O[C@H]1[C@@H](N2CCN(C)CC2)C[C@H]2[C@@H]3CC=C4C[C@@H](N5CCCC5)CC[C@]4(C)[C@H]3CC[C@@]21C ?
[out] f

[in] Could you kindly confirm the outcome this assay logged for CC1(C)[C@@H](Cn2cnc3c(O)nc(N)nc32)CC[C@@]1(C)CO ?
[out] f
